Reference source for all entries: patent EP0149197B2

experiment: Saturation solubility in phosphate buffer with and without 10 % hydroxypropyl-β-cyclodextrin (MS 0.35); settings: given as 1: x
Measured quantity: Verh.S1 zu S2

1. C[C@@H]1C[C@H]2[C@@H]3CCC4=CC(=O)C=C[C@]4(C)[C@@]3(F)[C@@H](O)C[C@]2(C)[C@@]1(O)C(=O)CO :: 172,0
2. COc1ccc2c(c1)c(CC(=O)O)c(C)n2C(=O)c1ccc(Cl)cc1 :: 30,1
3. CC(=O)[C@H]1CC[C@H]2[C@@H]3CCC4=CC(=O)CC[C@]4(C)[C@H]3CC[C@]12C :: 1083,0
4. CN1C(=O)CN=C(c2ccccc2)c2cc(Cl)ccc21 :: 29,4

* * *

assay: Storage stability of indometacin solutions at 21°C, HPLC content; type: physicochemical; conditions: aqueous buffer; concentration of the saturated solution in phosphate buffer (solution A); read-out: gesättigte Lösung in Phosphatpufferlösung
Measured quantity: solubility

1. COc1ccc2c(c1)c(CC(=O)O)c(C)n2C(=O)c1ccc(Cl)cc1 [Indometacin] :: 210 µg/mL

* * *

List of Verhältnis R von Sättigungslöslichkeit mit und ohne Zusatz des β-Cyclodextrinderivats values.
test: Saturation solubility with and without 4 % hydroxypropyl-methyl-β-cyclodextrin (DS 0,96; MS 0,43); type: physicochemical; details: in water; 4 % Hydroxypropyl-methyl-β-cyclodextrin
Measured quantity: Verhältnis R von Sättigungslöslichkeit mit und ohne Zusatz des β-Cyclodextrinderivats

1) CN(C)C(=O)C(CCN1CCC(O)(c2ccc(Cl)cc2)CC1)(c1ccccc1)c1ccccc1 [Loperamid] :: 62
2) Fc1ccc(C(c2ccc(F)cc2)N2CCN(C/C=C/c3ccccc3)CC2)cc1 [Flunarizin] :: 18
3) COC(=O)Nc1nc2cc(C(=O)c3ccc(F)cc3)ccc2[nH]1 [Flubendazol] :: 30

* * *

assay: Acute intravenous toxicity in rats; assay type: in vivo, Ratten; settings: rat, in vivo, iv
Measured quantity: LD50

1. OC[C@H]1O[C@@H]2O[C@H]3[C@H](O)[C@@H](O)[C@@H](O[C@H]4[C@H](O)[C@@H](O)[C@@H](O[C@H]5[C@H](O)[C@@H](O)[C@@H](O[C@H]6[C@H](O)[C@@H](O)[C@@H](O[C@H]7[C@H](O)[C@@H](O)[C@@H](O[C@H]8[C@H](O)[C@@H](O)[C@@H](O[C@H]1[C@H](O)[C@H]2O)O[C@@H]8CO)O[C@@H]7CO)O[C@@H]6CO)O[C@@H]5CO)O[C@@H]4CO)O[C@@H]3CO [β-Cyclodextrin] :: 453 mg/kg
